Biological target: Genome polyprotein (dengue virus type 2)
Sequence (P29990 1346-1475 limits assumed): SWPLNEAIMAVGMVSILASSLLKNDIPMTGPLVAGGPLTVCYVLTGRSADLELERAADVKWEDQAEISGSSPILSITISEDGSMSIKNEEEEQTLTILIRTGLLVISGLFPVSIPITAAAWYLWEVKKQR
Sequence (P29990 1476-2093 limits assumed): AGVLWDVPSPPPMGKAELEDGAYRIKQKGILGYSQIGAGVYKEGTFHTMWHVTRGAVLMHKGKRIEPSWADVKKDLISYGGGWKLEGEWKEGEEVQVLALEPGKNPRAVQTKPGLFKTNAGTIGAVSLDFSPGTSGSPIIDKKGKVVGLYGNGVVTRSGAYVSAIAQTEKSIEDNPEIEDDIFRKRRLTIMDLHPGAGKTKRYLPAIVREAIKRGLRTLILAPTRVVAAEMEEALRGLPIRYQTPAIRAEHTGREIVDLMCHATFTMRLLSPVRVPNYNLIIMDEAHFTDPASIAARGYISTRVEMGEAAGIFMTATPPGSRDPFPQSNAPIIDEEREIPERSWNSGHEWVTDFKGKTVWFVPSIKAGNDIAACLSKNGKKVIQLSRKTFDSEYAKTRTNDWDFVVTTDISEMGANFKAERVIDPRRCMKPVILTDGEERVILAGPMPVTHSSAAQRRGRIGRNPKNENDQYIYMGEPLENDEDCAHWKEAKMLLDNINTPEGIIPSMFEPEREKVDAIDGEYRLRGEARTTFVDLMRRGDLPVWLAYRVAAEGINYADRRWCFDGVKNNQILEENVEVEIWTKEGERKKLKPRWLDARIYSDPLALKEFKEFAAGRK
Type: functional, Thailand/16681/1984
MEASUREMENT NAME: IC50 (µM)
Give the value, in units of µM, as a plain number.

Consider the molecule `NCc1cc(Br)cc([C@H]2C[C@@H]2c2cc(Cl)cc(NC(=O)OCc3ccccc3)c2)c1` and give its measured IC50.
33.5

====

Target: Genome polyprotein (dengue virus type 2)
Type: functional, Thailand/16681/1984
MEASUREMENT NAME: IC50

Return IC50 measured with Genome polyprotein (dengue virus type 2) given this compound: `CC(C)NC(=O)[C@H](Nc1ccc2c(c1)CN(C)C2(C)C)c1cc(Cl)cc2[nH]ncc12`
28.2 µM

Now the compound `N#Cc1cc(CN)cc(NC(=O)c2cc(Cl)cc(NC(=O)OCc3ccccc3)c2)c1`
> 100 µM

Now the compound `N#CC[C@H](N)c1cccc(NC(=O)c2cc(Cl)cc(NC(=O)OCc3ccccc3)c2)c1`
> 100 µM

Further cases:
Return IC50 measured with Genome polyprotein (dengue virus type 2) given this compound: `COc1cn(-c2cccc(C(F)(F)F)c2)nc1C(=O)Nc1cccc(CN)c1`
> 100 µM
